- System: SF-268 CNS
- method: NCI-60 one-dose screen, 48 h
- run conditions: 10 µM unless noted
- Method: Cells are grown in 96 well plates and exposed to the test compound for 48 hours. Compounds are tested at a single concentration, which is 10^-5 M for most compounds. The reported endpoint is percent growth (GI% or GIPRCNT), where numbers from 0 - 100% represent growth inhibition, and numbers from -100% - 0 represent cell death. For example, a value of 40 represents 60% growth inhibition. A value of 0 means no net growth occurred over the course of the experiment. […]
About 83,000 compounds went through this panel and 20% of them were active in at least one assay; those are over-represented in the sample as a whole. The source made the active and inactive calls. Rule for the calls: active = growth percent below 10; inactive = the rest.
Would you mind answering with one of these outcomes? active, inactive

{"columns": ["compound", "qualitative label"],
 "data": [
  ["CC1=C(C#N)C2=NNCC(c3ccccc3)=NN2C(c2ccccc2)=C1", "inactive"],
  ["COc1ccc2[nH]cc(-c3cc(N)n4nc(-c5cn(C)c6ccccc56)cc4n3)c2c1", "active"],
  ["CCN(CC)c1ccc(/C=N/Nc2nc(-c3ccc(Br)cc3)cs2)c(O)c1", "inactive"]
]}

Ask | I would be grateful if you could indicate the recorded call for `COc1cccc(/C=C/C(=O)c2ccc(OC)c(S(N)(=O)=O)c2)c1` .
Reply | inactive

Ask | I would be grateful if you could indicate the recorded call for `O=c1[nH]c2ccc(Cl)cc2cc1CSc1nccc(-c2ccc(Cl)cc2)n1` .
Reply | inactive

Ask | I would be grateful if you could indicate the recorded call for C#CCOc1cc(N(CC)CC)ccc1C(C(=O)NC(C)(C)C)N(C(=O)C1CCc2cc(F)ccc2O1)c1cc(C)cc(C)c1 (stereo not given) .
Reply | inactive

Ask | I would be grateful if you could indicate the recorded call for `CC(=O)Nc1ccc(-n2cnc3cc(-c4ccc(O)cc4)ccc32)cc1C(F)(F)F` .
Reply | inactive

Ask | I would be grateful if you could indicate the recorded call for COc1ccc(C2=NN(C(C)=O)C(c3ccc(OCc4ccc(Cl)cc4)c(OC)c3)C2)cc1OC (stereo not given) .
Reply | inactive

Ask | I would be grateful if you could indicate the recorded call for `N/C(=N\c1nc2ccccc2s1)NC(=O)Nc1c(Cl)cccc1Cl` .
Reply | inactive

Ask | I would be grateful if you could indicate the recorded call for `Cc1cnc(C(=O)NNc2nc3cc(F)ccc3n3c(C(=O)N4CC5CC(C4)N5)ccc23)cn1` .
Reply | inactive
